# test method notes: Comparative solubility of complexed and non-complexed cardiac glycosides in deionised water
# Format: physicochemical
# condition notes: shaken about 8 hours, ambient temperature, HPLC, read-out: Solubility, Non-complexed (percent)
measured property: solubility thermodynamic at 8 h (mg/mL)
Answers are plain numbers, in mg/mL.

### Prompt State the recorded solubility thermodynamic at 8 h for this entry: C[C@H]1O[C@@H](O[C@H]2[C@@H](O)C[C@H](O[C@H]3[C@@H](O)C[C@H](O[C@H]4CC[C@@]5(C)[C@H](CC[C@@H]6[C@@H]5C[C@@H](O)[C@]5(C)[C@@H](C7=CC(=O)OC7)CC[C@]65O)C4)O[C@@H]3C)O[C@@H]2C)C[C@H](O)[C@@H]1O
### Response 0.046

###

# test method notes: Comparative solubility of complexed and non-complexed cardiac glycosides in deionised water
# Format: physicochemical
# condition notes: shaken about 8 hours, ambient temperature, HPLC
measured property: solubility at 8 h
Don't forget the unit after the number, please.

### Prompt What solubility at 8 h value was documented for this molecule, C[C@H]1O[C@@H](O[C@H]2[C@@H](O)C[C@H](O[C@H]3[C@@H](O)C[C@H](O[C@H]4CC[C@@]5(C)[C@H](CC[C@@H]6[C@@H]5C[C@@H](O)[C@]5(C)[C@@H](C7=CC(=O)OC7)CC[C@]65O)C4)O[C@@H]3C)O[C@@H]2C)C[C@H](O)[C@@H]1O ?
### Response 46 µg/mL
